Cited source for all entries: PubChem BioAssay AID1159580

# measurement.notes: chemical genetic growth profiling, strain panel (AID 1159580);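 note: tested at 20 µM; growth read once vehicle control cultures reached saturation at 30 °C; 1 = growth at the plate median or of vehicle wells; lower values mean less growth of the strain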
# stated.conditions: S. cerevisiae deletion strains, growth OD, locus YOR290C, strain snf2, hits give low values
In all, about 5,500 compounds went through this assay and about 2,000 (36%) were called active. Not shown: some 18% with an inconclusive outcome. The list shows a part of the results.
Measured normalized growth values are reported for all entries that follow.
Keep the answer to the number alone.

### Prompt Suppose we examine the compound COC(=O)CC1C(C)(C(=O)c2ccoc2)CC2OCC34C(CC(=O)OC)C5(C)CC36OC3(C)OC1(C(OC(C)=O)C6(OC(C)=O)C5OC(=O)C(C)C)C24O3 (stereo not drawn) ; what normalized growth value has been reported?
### Response 0.895

Would you kindly look at the next entry?
### Prompt Suppose we examine the compound O=c1c(O)c(-c2ccccc2)oc2ccccc12 ; what normalized growth value has been reported?
### Response 0.589

====

Measured normalized growth values are reported for all entries that follow.
# measurement.notes: chemical genetic growth profiling, strain panel (AID 1159580);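 note: tested at 20 µM; growth read once vehicle control cultures reached saturation at 30 °C; 1 = growth at the plate median or of vehicle wells; lower values mean less growth of the strain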
# stated.conditions: S. cerevisiae deletion strains, growth OD, locus YER133W, strain GLC7, hits give low values
Out of some 5,500 compounds screened, about 2,000 (36%) were called active. Another 18% or so got no clear call; they are omitted. The list shows a part of the results.
Keep the answer to the number alone.

### Prompt Suppose we examine the compound FC(F)(F)c1ccncc1-c1nc(-c2ccc(Cl)cc2)cs1 ; what normalized growth value has been reported?
### Response 0.936

### Prompt Further, for CC1SC(c2cccnc2)N(c2ccc(Cl)cc2)C1=O (stereo not given) ?
### Response 0.421

### Prompt Further, for COC(=O)c1cc([N+](=O)[O-])ccc1S(=O)(=O)Cc1ccc(Cl)cc1 ?
### Response 0.956

---
### Prompt Suppose we examine the compound O=C(NCc1ccc2c(c1)OCO2)c1cc2ccccc2s1 ; what normalized growth value has been reported?
### Response 0.298

### Prompt Further, for CC1SC(c2cccnc2)N(c2ccc(F)cc2F)C1=O (stereo not given) ?
### Response 0.99

====

# measurement.notes: chemical genetic growth profiling, strain panel (AID 1159580);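 note: tested at 20 µM; growth read once vehicle control cultures reached saturation at 30 °C; 1 = growth at the plate median or of vehicle wells; lower values mean less growth of the strain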
# stated.conditions: S. cerevisiae deletion strains, growth OD, locus YPL241C, strain CIN2, hits give low values
The whole screen tested about 5,500 compounds, of which about 2,000 (36%) were called active. Inconclusive results (about 18%) are left out. The list shows a part of the results.
With a cut-off of 1, any normalized growth strictly below it is called YES; any normalized growth meeting it or above is called NO.

### Prompt Criterion: normalized growth strictly below 1. Is it met by Cc1c(-c2csc(-c3ccc(Cl)cc3)n2)sc2ccc(Cl)cc12 ?
### Response NO

Below: the item to evaluate.
### Prompt Criterion: normalized growth strictly below 1. Is it met by Nc1cccc2c1C(=O)c1ccccc1-2 ?
### Response YES

====

# measurement.notes: chemical genetic growth profiling, strain panel (AID 1159580);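 note: tested at 20 µM; growth read once vehicle control cultures reached saturation at 30 °C; 1 = growth at the plate median or of vehicle wells; lower values mean less growth of the strain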
# stated.conditions: S. cerevisiae deletion strains, growth OD, locus YDR334W, strain swr1, hits give low values
Among all 5,500 compounds or so, about 2,000 (36%) were called active. Another 18% or so got no clear call; they are omitted. This is one part of the list.
Measured normalized growth values are reported for all entries that follow.
Keep the answer to the number alone.

Some solved cases for reference:
### Prompt Suppose we examine the compound COC1=CC23CCCN2CCc2cc4c(cc2C3C1O)OCO4 (stereo not given) ; what normalized growth value has been reported?
### Response 1.03

### Prompt Further, for O=C(O)CCC(=O)OC[C@@H](NC(=O)C(Cl)Cl)[C@H](O)c1ccc([N+](=O)[O-])cc1 ?
### Response 0.945

### Prompt Further, for CCCCCCCCCCCCCCCC(=O)OC[C@H](NC(=O)C(Cl)Cl)[C@H](O)c1ccc([N+](=O)[O-])cc1 ?
### Response 1.03

---
### Prompt Suppose we examine the compound COc1cc2c(cc1OC)C(C)NCC2 (stereo not given) ; what normalized growth value has been reported?
### Response 0.951

### Prompt Further, for CN1CCN(C2=Nc3cc(Cl)ccc3Nc3ccccc32)CC1 ?
### Response 0.98
